- Species: Rattus norvegicus
- test description: Open TG-GATES - Regimen: Daily Repeat
- Assay type: toxicity, organism-based, Sprague-Dawley
- Parameters: regimen Daily Repeat, gender Male, age 6 weeks
- assay context: in vivo, po, 0 mg/kg, […], tissue Plasma, route gavage, dose level Control, time 28 day
measured quantity: BUN (mg/dL)

molecule: CCO [ALCOHOL]
measured quantity: BUN
reading unit: mg/dL
observed measurement: 20.4

molecule: CC(=O)[C@@]1(O)CC[C@H]2[C@@H]3C=C(Cl)C4=CC(=O)CC[C@]4(C)[C@H]3CC[C@@]21C [CHLORMADINONE]
measured quantity: BUN
reading unit: mg/dL
observed measurement: 21.6

molecule: CCN(CC)C(=S)SSC(=S)N(CC)CC
measured quantity: BUN
reading unit: mg/dL
observed measurement: 18.4

molecule: CN(CCOc1ccc(CC2SC(=O)NC2=O)cc1)c1ccccn1.O=C(O)/C=C\C(=O)O (stereo not drawn) [ROSIGLITAZONE MALEATE]
measured quantity: BUN
reading unit: mg/dL
observed measurement: 18.4

molecule: CC(S)C(=O)NCC(=O)O (stereo not drawn) [TIOPRONIN]
measured quantity: BUN
reading unit: mg/dL
observed measurement: 19.2

molecule: CCCCC1C(=O)N(c2ccccc2)N(c2ccccc2)C1=O [PHENYLBUTAZONE]
measured quantity: BUN
reading unit: mg/dL
observed measurement: 20.2

molecule: COc1ccc([C@@H]2Sc3ccccc3N(CCN(C)C)C(=O)[C@@H]2OC(C)=O)cc1 [DILTIAZEM]
measured quantity: BUN
reading unit: mg/dL
observed measurement: 16.8

molecule: CN(C/C=C/C#CC(C)(C)C)Cc1cccc2ccccc12 [TERBINAFINE]
measured quantity: BUN
reading unit: mg/dL
observed measurement: 17.6

molecule: O=c1ccc2ccccc2o1 [COUMARIN]
measured quantity: BUN
reading unit: mg/dL
observed measurement: 18.8

molecule: Nc1ccc(Cc2ccc(N)cc2)cc1
measured quantity: BUN
reading unit: mg/dL
observed measurement: 15.2

molecule: O=C(O)c1ccccc1Nc1ccccc1 [FENAMIC ACID]
measured quantity: BUN
reading unit: mg/dL
observed measurement: 14.8

molecule: NS(=O)(=O)c1cc(C(=O)O)c(NCc2ccco2)cc1Cl [FUROSEMIDE]
measured quantity: BUN
reading unit: mg/dL
observed measurement: 14.4

molecule: CCCCNC(=O)NS(=O)(=O)c1ccc(C)cc1 [TOLBUTAMIDE]
measured quantity: BUN
reading unit: mg/dL
observed measurement: 17
